Quick reference for AC50 among some molecules
# STUDY_TARGET: human PAH with the R408W mutation (A375 R408W cells) (Homo sapiens, UniProt P00439, R408W)
# Construct: expressed in transfected cells
# Sequence (P00439 whole entry R408W): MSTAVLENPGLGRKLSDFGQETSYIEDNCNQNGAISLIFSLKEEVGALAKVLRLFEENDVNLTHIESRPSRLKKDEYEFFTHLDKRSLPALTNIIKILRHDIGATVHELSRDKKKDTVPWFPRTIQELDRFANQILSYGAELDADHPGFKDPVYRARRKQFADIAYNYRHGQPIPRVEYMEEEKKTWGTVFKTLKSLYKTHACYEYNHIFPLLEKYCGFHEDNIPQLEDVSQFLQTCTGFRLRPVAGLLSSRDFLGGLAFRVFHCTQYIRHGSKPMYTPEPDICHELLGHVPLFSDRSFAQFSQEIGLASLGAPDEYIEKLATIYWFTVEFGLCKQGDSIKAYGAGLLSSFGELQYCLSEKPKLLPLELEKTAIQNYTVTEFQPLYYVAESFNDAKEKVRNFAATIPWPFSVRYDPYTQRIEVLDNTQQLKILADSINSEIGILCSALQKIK
# MEASUREMENT_PROTOCOL: Cell Based Phenylalanine Flux Assay
# CONDITIONS_USED: A375 cells expressing R408W PAH; 24 hrs with compound, then 20 μM sepiapterin and 800 μM 13C9,15N-Phenylalanine for 4 hours; 13C-Tyrosine by LC-MS; average where tested multiple times

Consider the following illustrative entries.
# MOLECULE, AC50
rows = [
    ("Cn1cncc1-c1nnc(C(=O)N2CCc3[nH]cnc3C2c2nc3c(F)ccc(F)c3o2)o1 (centres unmarked)", "1 to 5 µM"),
    ("Cn1ncnc1C(=O)N1CCc2[nH]cnc2C1c1nc2c(F)cccc2o1 (centres unmarked)", "1 to 5 µM"),
    ("Fc1ccc2oc(C3c4nc[nH]c4CCN3Cc3cnco3)nc2c1 (centres unmarked)", "≥ 5 µM"),
    ("O=C(c1cnn2cc(N3CCC(O)CC3)ccc12)N1CCc2[nH]cnc2C1c1nc2ccccc2o1 (centres unmarked)", "1 to 5 µM"),
]

// next item, AC50 requested
**Query** Look at this molecule and give its reported AC50. COCc1ccc2c(C(=O)N3CCc4[nH]cnc4C3c3nc4ccc(C)cc4o3)cnn2c1 (centres unmarked)
**Result** ≥ 5 µM
